biological target: CAT1 (cationic amino acid transporter 1, CAT1/SLC7A1) (Homo sapiens); construct: full-length human transporter stably transfected in HEK cells (HEK-CAT1); net uptake against HEK-VC vector control cells; experiment: cell-based; design: species or system HEK-CAT1 (HEK293 stably transfected); Inhibition of net CAT1-mediated [3H]-ADMA (1 uM) uptake, 2.5 min, scintillation counting, vector control subtracted; settings: HEK293; ADMA 1 uM as substrate; read-out: % Inhibition of ADMA uptake at 20 µM
MEASURED ENDPOINT: inhibition at 20 µM (%)
Express the result in % but write the number alone.

Observe how each entry below is paired with its result.
| MOLECULE | DISPLAY UNIT | inhibition at 20 µM |
| --- | --- | --- |
| CCCCNc1cc(C(=O)O)cc(S(N)(=O)=O)c1Oc1ccccc1 [Bumetanide] | % | -2.8 |
| C=C[C@H]1CN2CC[C@H]1C[C@@H]2[C@@H](O)c1ccnc2ccc(OC)cc12 | % | 4.4 |
| CNC(=C[N+](=O)[O-])NCCSCc1ccc(CN(C)C)o1 | % | -0.5 |

Task item: Tell me the measured inhibition at 20 µM of COc1ccc(OC)c(C(O)C(C)N)c1 (stereo not shown) , please.
Reply: 0.7

Task item: Try this molecule next: CCOC(=O)C1=C(COCCN)NC(C)=C(C(=O)OC)C1c1ccccc1Cl (stereo not shown)
Reply: -7.3

Task item: // repeat for O=C(O)c1cc(-c2ccc(F)cc2F)ccc1O and report
Reply: -42.4

Task item: Now the same for COCCc1ccc(OCC(O)CNC(C)C)cc1 (stereo not shown)
Reply: -15.1

Task item: // next record O=C(O)Cc1ccccc1Nc1c(Cl)cccc1Cl
Reply: 26.1

Task item: Same for CCCC1O[C@@H]2C[C@H]3[C@@H]4CCC5=CC(=O)C=C[C@]5(C)[C@H]4[C@@H](O)C[C@]3(C)[C@]2(C(=O)CO)O1 (stereo partly shown) [Budesonide]
Reply: -13.2

Task item: Try CN(C)CCC=C1c2ccccc2CCc2ccccc21 next.
Reply: 5.6

----------
inhibition at 200 µM values for the compounds below.
target: CAT1 (cationic amino acid transporter 1, CAT1/SLC7A1) (Homo sapiens, UniProt P30825); construct: full-length human transporter stably transfected in HEK cells (HEK-CAT1); net uptake against HEK-VC vector control cells; test: cell-based; parameters: species or system HEK-CAT1 (HEK293 stably transfected); Inhibition of net CAT1-mediated [3H]-ADMA (1 uM) uptake, 2.5 min, scintillation counting, vector control subtracted; conditions: HEK293; ADMA 1 uM as substrate; read-out: % Inhibition of ADMA uptake at 200 µM
Sequence (P30825 whole entry): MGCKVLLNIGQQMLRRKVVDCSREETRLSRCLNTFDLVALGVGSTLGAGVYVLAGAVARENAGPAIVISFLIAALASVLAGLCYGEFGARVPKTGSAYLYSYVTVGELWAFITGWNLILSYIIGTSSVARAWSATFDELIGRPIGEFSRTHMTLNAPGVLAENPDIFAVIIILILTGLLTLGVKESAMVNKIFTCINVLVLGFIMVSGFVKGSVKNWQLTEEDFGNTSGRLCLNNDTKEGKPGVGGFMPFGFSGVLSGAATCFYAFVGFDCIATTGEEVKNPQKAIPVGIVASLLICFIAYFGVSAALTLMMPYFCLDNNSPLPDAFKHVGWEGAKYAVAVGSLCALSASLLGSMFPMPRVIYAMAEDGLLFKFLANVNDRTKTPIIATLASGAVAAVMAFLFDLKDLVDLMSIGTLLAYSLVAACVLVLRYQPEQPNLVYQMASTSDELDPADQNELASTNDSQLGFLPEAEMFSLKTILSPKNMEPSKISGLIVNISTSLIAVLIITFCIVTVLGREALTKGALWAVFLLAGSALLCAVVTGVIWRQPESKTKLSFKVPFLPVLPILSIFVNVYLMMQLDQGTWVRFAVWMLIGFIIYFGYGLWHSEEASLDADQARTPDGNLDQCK
Answer in %, number only, no unit symbol.

These recorded examples may help you get a feel for the data.
| COMPOUND | inhibition at 200 µM, % |
| --- | --- |
| CC(C)OC(=O)C(C)(C)Oc1ccc(C(=O)c2ccc(Cl)cc2)cc1 [Fenofibrate] | 0.2 |
| CCCCc1nc(Cl)c(CO)n1Cc1ccc(-c2ccccc2-c2nnn[nH]2)cc1 | 12.9 |
| CC[C@H](C)C(=O)O[C@H]1C[C@H](O)C=C2C=C[C@H](C)[C@H](CC[C@@H](O)C[C@@H](O)CC(=O)O)[C@H]21 | -4.4 |
| CC(C)NCC(O)COc1cccc2ccccc12 (stereo not shown) | -36.3 |
| N[C@@H](Cc1ccc(O)c(O)c1)C(=O)O | -6 |

Task item: Would you mind telling me what inhibition at 200 µM value was observed for COCCc1ccc(OCC(O)CNC(C)C)cc1 (stereo not shown) ?
Reply: 19.8

Task item: Further, for C=CC[C@@H]1/C=C(\C)C[C@H](C)C[C@H](OC)[C@H]2O[C@@](O)(C(=O)C(=O)N3CCCC[C@H]3C(=O)O[C@H](/C(C)=C/[C@@H]3CC[C@@H](O)[C@H](OC)C3)[C@H](C)[C@@H](O)CC1=O)[C@H](C)C[C@@H]2OC ?
Reply: -11.8

Each recorded value in this set is attributed to paper PMC9217908.
